- STUDY TARGET: TDP-43 (Homo sapiens, UniProt Q13148 1-414)
- Sequence (Q13148 whole entry): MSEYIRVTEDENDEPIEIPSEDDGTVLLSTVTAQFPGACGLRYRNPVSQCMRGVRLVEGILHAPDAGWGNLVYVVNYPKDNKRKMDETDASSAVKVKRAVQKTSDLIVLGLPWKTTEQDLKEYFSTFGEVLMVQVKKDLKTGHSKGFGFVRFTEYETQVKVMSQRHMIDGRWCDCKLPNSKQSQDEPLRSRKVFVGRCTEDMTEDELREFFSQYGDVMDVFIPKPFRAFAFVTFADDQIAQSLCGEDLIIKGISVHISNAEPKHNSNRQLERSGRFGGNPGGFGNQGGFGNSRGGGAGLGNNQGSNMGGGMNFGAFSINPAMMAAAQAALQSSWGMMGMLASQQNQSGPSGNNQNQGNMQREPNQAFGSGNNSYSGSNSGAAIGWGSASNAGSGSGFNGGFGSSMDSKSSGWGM
- METHOD NOTES: RNA Bind-n-Seq with designed 260-mer pool; 25 mM Tris-HCl, 150 mM KCl, 3 mM MgCl2, BSA (printed 500 mg/mL), 20 units/mL SUPERase IN; pH not stated; 500 nM RNA pool, 1 h, 4 C; TDP-43 5, 50, 500 nM; high values mean tight binding
- STATED CONDITIONS: protein: recombinant; tags: SBP (GST cleaved off with PreScission; pGEX-GST-SBP)
Whole data set: some 9,900 sequences, median “r (bound/input frequency ratio)” near 0.7, cut for the highest 2% near 6.5. Many of the other results were omitted from the sample, so the highest values are more common in it than they were.
Please go through the items and note down their binding signal.

Please supply binding signal for each of the following items, keeping them in order.
1. ENSMUSG00000032194.282|Kank2 (ssRNA) RNA: GGGAGUUCUACAGUCCGACGAUCGCUUCGAUAUCCGCAUGCUAGGAUGGAUGGACAGGUGGGUGGAUGGAUGGGUGGACGGAUGAGUGUGGGGUGGGUGGAUGGAUAAAUGAGCAAUGGAUGAGAAACUGGGUUGGCUGGUGGGUAGAUGUCAUGAUGGAGUCUUUGCACGUGUAUGAAACAGAAAACCAAACUUCAGGACAGACAGCUGCUGGUGUCUCUGGAUGCUCACAGCCUAGGGCACAUUUGAAAGGUCGUGCUCUGAGCUGAGCCCUGAGUUCCAGCCUUGUAGCCAGCAAGGGAGCUCUUGCGGUCGCACUAGUGUGGAAUUCUCGGGUGUCAAGG
2. ENSMUSG00000043670.57|Diras1|205:210 (ssRNA) RNA: GGGAGUUCUACAGUCCGACGAUCGCUUCGAUAUCCGCAUGCUACCUGCCUCUUCACACCUCCAUAGCUUCAUCCUUUGCAGACCUCUCCCUCUAUAUCUCUUUGCUCCCCCACCCCCAUUCUAUCUGCACCCCACAACCACACACUGGAGGUUUGAUCCCUGUGGAUCUGAAAACAGGGACCUGGCUAAGGAACUGCUCAUCCCAGUCAGGCCCAGAGAGGUUACCUUGCCUCUCCAUCUCUGUCCCACACACCCCAGCCAUGCCCACUGUCCCUGUCCCUCACAUUCUAUCACUGUGACCUCCUCUUGCGGUCGCACUAGUGUGGAAUUCUCGGGUGUCAAGG
3. ENSMUSG00000061578.426|Ksr2 (ssRNA) RNA: GGGAGUUCUACAGUCCGACGAUCGCUUCGAUAUCCGCAUGCUAGACCACUGACCCGUCCAGACCCUCGCUUCUUACAAUGCCUCUUCUUCUGCCAGACCAGCCACCUGCCCCACUAACACCAAAUGGCUUCUGUCCCUGCUUCACGUUGCAAAUCCUUCAAGACAGAAGUUUCAGAGGGGAUAGUUCCUUCUAACCUUGUACUGGGACAUCAUCUAUGUCCCCAUCCCCAGAGCUGAAUUAGAGACACCAAGUAGCCUCUUGGGUUGUUUUGUGGGGUGUUCCCCUUGCUGGUCAAAGGAGUGCUCUUGCGGUCGCACUAGUGUGGAAUUCUCGGGUGUCAAGG
4. ENSMUSG00000032194.167|Kank2 (ssRNA) RNA: GGGAGUUCUACAGUCCGACGAUCGCUUCGAUAUCCGCAUGCUAAGAGUAAACAGAGACUGUGAUACUGACCAAGUACAGGCGCUCGCUAUGAAGCCCAUAUGUUCCUGAUUAAGAGCUGGCUGGCCUCAGAGCACUCCCAGAACUAGCUUAAAGUGACAGGCUUUGCUGAAAUCCAAAGGGACAAAAGAGUAGUUUUAUGUUUGUGUGUUUGUUUUUAAUGCCCUGGAGCUCCUGCUGGUGACAGGAGAGACAGACAGGCUGCACCUUUCUCUAACUGGGGUUCCUUUCUGGCCCCAGGAUCUCUCUUGCGGUCGCACUAGUGUGGAAUUCUCGGGUGUCAAGG

## Output
6.52 R (bound/input frequency ratio)
2.63 R (bound/input frequency ratio)
1.01 R (bound/input frequency ratio)
3.92 R (bound/input frequency ratio)
